- Assay Method Text: in vivo
- Condition Parameters: male, C57BL/6, mouse, po, 30 mg/kg
Experimental Endpoint: Cmax (ng/mL)

>  <Molecule>
COc1cc(C(=O)O[C@@H]2Cc3c(O)cc(O)cc3O[C@H]2c2cc(O)c(O)c(O)c2)c(F)c(O)c1O [Compound 68]

>  <Endpoint Result>
41

$$$$

---

- Experimental Target: DYRK1A (HT-497, 6×His tagged rat truncated DYRK1A isoform X1 residues 1-497) (Rattus norvegicus (Rat))
- Assay Method Text: DYRK1A ELISA assay (HT-PRD phosphorylation)
- Condition Parameters: 100 µM ATP, 5 ng HT-497, 30 min at 30° C.
pIC50: −log10 of the molar value.

>  <Smiles Record>
O=C(N[C@H]1Cc2c(O)cc(O)cc2O[C@@H]1c1cc(O)c(O)c(O)c1)c1ccc(O)c(O)c1

>  <pIC50>
< 6.00

$$$$
>  <Smiles Record>
O=C(O[C@H]1Cc2c(O)cc(O)cc2O[C@@H]1c1cc(O)c(O)c(O)c1)c1ccc(O)c(O)c1

>  <pIC50>
< 7.00

$$$$
>  <Smiles Record>
O=C(O[C@H]1Cc2c(O)cc(O)cc2O[C@@H]1c1cc(O)c(O)c(O)c1)c1ccc(F)c(F)c1

>  <pIC50>
< 6.00

$$$$
>  <Smiles Record>
O=C(O[C@@H]1Cc2c(O)cc(O)cc2O[C@@H]1c1cc(O)c(O)c(O)c1)c1ccc(O)c(O)c1

>  <pIC50>
< 7.00

$$$$
>  <Smiles Record>
O=C(O[C@@H]1Cc2c(O)cc(O)cc2O[C@@H]1c1cc(O)c(O)c(O)c1)c1ccc(O)cc1

>  <pIC50>
< 6.00

$$$$
>  <Smiles Record>
O=C(O[C@@H]1Cc2c(O)cc(O)cc2O[C@H]1c1cc(O)c(O)c(O)c1)c1ccc(O)c(O)c1

>  <pIC50>
< 7.00

$$$$
>  <Smiles Record>
O=C(O[C@H]1Cc2c(O)cc(O)cc2O[C@@H]1c1ccc(O)c(O)c1)c1ccc(O)c(O)c1

>  <pIC50>
< 6.00

$$$$
>  <Smiles Record>
CCC(=O)Oc1cc(O)c2c(c1)O[C@H](c1cc(O)c(O)c(O)c1)[C@H](OC(=O)c1cc(O)c(O)c(O)c1)C2

>  <pIC50>
< 7.00

$$$$
>  <Smiles Record>
CCNC(=O)Oc1cc(O)c2c(c1)O[C@H](c1cc(O)c(O)c(O)c1)[C@H](OC(=O)c1cc(O)c(O)c(O)c1)C2

>  <pIC50>
< 7.00

$$$$
>  <Smiles Record>
CC(C)C(=O)Oc1c(O)cc(C(=O)O[C@@H]2Cc3c(O)cc(O)cc3O[C@@H]2c2cc(O)c(O)c(O)c2)cc1O

>  <pIC50>
< 7.00

$$$$
>  <Smiles Record>
O=C(O[C@@H]1Cc2c(O)cc(O)cc2O[C@H]1c1cc(O)c(O)c(O)c1)c1cc(O)c(O)c(F)c1

>  <pIC50>
< 7.00

$$$$
>  <Smiles Record>
COc1cc([C@@H]2Oc3cc(O)cc(O)c3C[C@H]2OC(=O)c2cc(O)c(O)c(O)c2F)cc(O)c1O

>  <pIC50>
< 7.00

$$$$
>  <Smiles Record>
O=C(O[C@@H]1Cc2c(O)cc(O)cc2O[C@H]1c1cc(O)c(O)cc1F)c1cc(O)c(O)c(O)c1F

>  <pIC50>
< 7.00

$$$$
>  <Smiles Record>
O=C(N[C@H]1Cc2c(O)cc(O)cc2O[C@@H]1c1cc(O)c(O)c(O)c1)c1ccc(O)cc1

>  <pIC50>
< 6.00

$$$$
>  <Smiles Record>
O=C(O[C@@H]1Cc2c(O)cc(O)cc2O[C@H]1c1ccc(O)c(O)c1)c1cc(O)c(O)c(O)c1

>  <pIC50>
< 7.00

$$$$
>  <Smiles Record>
O=C(O[C@@H]1Cc2c(O)cc(O)cc2O[C@H]1c1cc(O)c(O)c(O)c1)c1cc(O)c(O)c(O)c1F

>  <pIC50>
> 7.00

$$$$
>  <Smiles Record>
Cc1c(C(=O)O[C@@H]2Cc3c(O)cc(O)cc3O[C@H]2c2cc(O)c(O)c(O)c2)ccc(O)c1O

>  <pIC50>
< 7.00

$$$$
>  <Smiles Record>
CS(=O)(=O)Nc1ccc(C(=O)O[C@@H]2Cc3c(O)cc(O)cc3O[C@H]2c2cc(O)c(O)c(O)c2)cc1O

>  <pIC50>
< 6.00

$$$$
>  <Smiles Record>
CS(=O)(=O)Nc1ccc(C(=O)O[C@H]2Cc3c(O)cc(O)cc3O[C@@H]2c2ccc(O)c(O)c2)cc1O

>  <pIC50>
< 6.00

$$$$
>  <Smiles Record>
O=C(O[C@H]1Cc2c(O)cc(O)cc2O[C@@H]1c1cc(O)c(O)c(O)c1)c1ccncc1

>  <pIC50>
< 6.00

$$$$
>  <Smiles Record>
O=C(O[C@@H]1Cc2c(O)cc(O)cc2O[C@H]1c1ccc(O)c(O)c1)c1cc(O)c(O)c(O)c1F

>  <pIC50>
> 7.00

$$$$
>  <Smiles Record>
COc1cc(C(=O)N[C@H]2Cc3c(O)cc(O)cc3O[C@@H]2c2cc(O)c(O)c(O)c2)cc(O)c1O

>  <pIC50>
< 6.00

$$$$
>  <Smiles Record>
COc1c(O)c(O)c(F)c(C(=O)O[C@@H]2Cc3c(O)cc(O)cc3O[C@H]2c2ccc(O)c(O)c2)c1F

>  <pIC50>
< 7.00

$$$$
>  <Smiles Record>
O=C(O[C@@H]1Cc2c(O)cc(O)cc2O[C@H]1c1cc(O)c(O)c(O)c1)c1c(F)c(O)c(O)c(O)c1F

>  <pIC50>
> 7.00

$$$$
>  <Smiles Record>
O=C(O[C@@H]1Cc2c(O)cc(O)cc2O[C@H]1c1cc(O)c(O)c(O)c1)c1cc(O)c(O)cc1O

>  <pIC50>
< 7.00

$$$$
>  <Smiles Record>
O=C(O[C@@H]1Cc2cccc(O)c2C[C@H]1c1cc(O)c(O)c(O)c1)c1cc(O)c(O)c(O)c1

>  <pIC50>
< 7.00

$$$$
>  <Smiles Record>
O=C(O[C@@H]1Cc2c(O)cc(O)cc2O[C@H]1c1cc(O)c(O)c(O)c1F)c1cc(O)c(O)c(O)c1F

>  <pIC50>
> 7.00

$$$$
>  <Smiles Record>
COc1cc(C(=O)O[C@H]2Cc3c(O)cc(O)cc3O[C@@H]2c2cc(O)c(O)c(O)c2)cc(O)c1O

>  <pIC50>
< 7.00

$$$$

meta.source: patent US20240336588A1
